system: HOP-92; experiment: Cytotoxicity against human HOP92 cells assessed as cell growth at 10^-5 M after 48 hrs by SRB assay; type: functional; settings: HOP-92, 48 h, read-out: Activity
Label MET when growth at 10 µM >= 70%; otherwise NOT MET.

Worked cases, answers included:
Kindly determine if growth at 10 µM recorded for "NC(=O)Nc1ccc2ncnc(Nc3cccc(O)c3)c2c1" is above or exactly 70%. MET

Hello, I need to know if "NC(=O)Nc1ccc2ncnc(Nc3ccc(Cl)cc3)c2c1" has measured growth at 10 µM not below 70%. Thanks! MET

Given "CCOC(=O)/C(C#N)=C\Nc1ccc2ncnc(Nc3ccc(Cl)cc3Cl)c2c1" , state whether its growth at 10 µM is at least 70%. NOT MET

Next:
Does growth at 10 µM meet or surpass 70% for "C#Cc1cccc(Nc2ncnc3ccc(N/C=C(\C#N)C(=O)OCC)cc23)c1" ? MET

----------
tested on: HOP-62; assay: Cytotoxicity against human HOP62 cells assessed as cell growth at 10^-5 M after 48 hrs by SRB assay; format: functional; settings: HOP-62, 48 h, read-out: Activity
Catalogue of compounds with associated growth at 10 µM
The answer is to be given in %; state only the numeric part.

Form field - read-out: growth at 10 µM; system: HOP-62; submitted item: "NC(=O)Nc1ccc2ncnc(Nc3ccc(Cl)cc3)c2c1" 86.2

---
What reported growth at 10 µM corresponds to "CCOC(=O)/C(C#N)=C\Nc1ccc2ncnc(Nc3ccc(Cl)cc3Cl)c2c1" on HOP-62? 101

What is its growth at 10 µM for HOP-62? Entry: "NC(=O)Nc1ccc2ncnc(Nc3cccc(O)c3)c2c1" 92.8

Notebook: pull reported growth at 10 µM for HOP-62, entry "CCOC(=O)/C(C#N)=C\Nc1ccc2ncnc(Nc3ccc(Cl)cc3)c2c1" 107

Query growth at 10 µM on HOP-62 for "CCOC(=O)/C(C#N)=C\Nc1ccc2ncnc(Nc3ccccc3Cl)c2c1" 99.1

Kindly state the measured growth at 10 µM obtained for "C#Cc1cccc(Nc2ncnc3ccc(N/C=C(\C#N)C(=O)OCC)cc23)c1" with HOP-62. 99.9

----------
tested on: IGROV-1; assay: Cytotoxicity against human IGROV1 cells assessed as cell growth at 10^-5 M after 48 hrs by SRB assay; format: functional; settings: IGROV-1, 48 h, read-out: Activity
reported property: growth at 10 µM (%)
Express your answer in %, writing the number without its unit.

Endpoint output: growth at 10 µM of "CCOC(=O)/C(C#N)=C\Nc1ccc2ncnc(Nc3ccccc3Cl)c2c1" . Value? 79.7

What value of measured growth at 10 µM is listed for "CCOC(=O)/C(C#N)=C\Nc1ccc2ncnc(Nc3ccc(Cl)cc3Cl)c2c1" ? 55

Query (molecule): "NC(=O)Nc1ccc2ncnc(Nc3ccc(Cl)cc3)c2c1" ; field requested: growth at 10 µM 61

GET /values?readout=growth at 10 µM&item= "CCOC(=O)/C(C#N)=C\Nc1ccc2ncnc(Nc3ccc(Cl)cc3)c2c1" 52.4

Request the reported growth at 10 µM associated with "NC(=O)Nc1ccc2ncnc(Nc3cccc(O)c3)c2c1" 107

Now let's try a different one.
Reported growth at 10 µM, molecule "C#Cc1cccc(Nc2ncnc3ccc(N/C=C(\C#N)C(=O)OCC)cc23)c1" : ____ 77.4

----------
system: UACC-257; test: Cytotoxicity against human UACC257 cells assessed as cell growth at 10^-5 M after 48 hrs by SRB assay; type: functional; settings: UACC-257, 48 h, read-out: Activity
Listed compounds paired with reported growth at 10 µM
Hi! Could you send only the number? It should be in %, unit omitted.

Worked examples, 5 compounds total:
Which growth at 10 µM is reported for this compound? "CCOC(=O)/C(C#N)=C\Nc1ccc2ncnc(Nc3ccc(Cl)cc3)c2c1" 108

I am curious: what growth at 10 µM value has been reported for "CCOC(=O)/C(C#N)=C\Nc1ccc2ncnc(Nc3ccccc3Cl)c2c1" ? 120

Give the measured growth at 10 µM of "NC(=O)Nc1ccc2ncnc(Nc3ccc(Cl)cc3)c2c1" . 100

// growth at 10 µM lookup, key: "CCOC(=O)/C(C#N)=C\Nc1ccc2ncnc(Nc3ccc(Cl)cc3Cl)c2c1" 97.2

GET /values?readout=growth at 10 µM&item= "NC(=O)Nc1ccc2ncnc(Nc3cccc(O)c3)c2c1" 99.8

***
Please look up its growth at 10 µM: "C#Cc1cccc(Nc2ncnc3ccc(N/C=C(\C#N)C(=O)OCC)cc23)c1" 99.8

----------
compounds and their reported growth at 10 µM
test system: NCI-H23; assay: Cytotoxicity against human NCI-H23 cells assessed as cell growth at 10^-5 M after 48 hrs by SRB assay; assay type: functional; conditions: NCI-H23, 48 h, read-out: Activity
The answer is to be given in %; state only the numeric part.

Worked cases, answers included:
Dear colleague, I am looking for the recorded growth at 10 µM of the following compound: "CCOC(=O)/C(C#N)=C\Nc1ccc2ncnc(Nc3ccc(Cl)cc3)c2c1" 92.5

Using the record for "NC(=O)Nc1ccc2ncnc(Nc3cccc(O)c3)c2c1" , report its growth at 10 µM. 100

State the recorded growth at 10 µM for this entry: "NC(=O)Nc1ccc2ncnc(Nc3ccc(Cl)cc3)c2c1" 100

What growth at 10 µM value was documented for this compound, "CCOC(=O)/C(C#N)=C\Nc1ccc2ncnc(Nc3ccccc3Cl)c2c1" ? 103

Reported growth at 10 µM for "C#Cc1cccc(Nc2ncnc3ccc(N/C=C(\C#N)C(=O)OCC)cc23)c1" : what is it? 98.2

Next, consider the following compound.
Tell me the measured growth at 10 µM of "CCOC(=O)/C(C#N)=C\Nc1ccc2ncnc(Nc3ccc(Cl)cc3Cl)c2c1" , please. 99.5

----------
test system: LOX IMVI; assay: Cytotoxicity against human LOXIMVI cells assessed as cell growth at 10^-5 M after 48 hrs by SRB assay; type: functional; conditions: read-out: Activity
reported property: growth at 10 µM (%)
Your answer is read as %, so omit the unit and give the number.

Some compounds with known growth at 10 µM results, for comparison:
growth at 10 µM for "CCOC(=O)/C(C#N)=C\Nc1ccc2ncnc(Nc3ccccc3Cl)c2c1" ? 93

Requested field: growth at 10 µM. Item: "NC(=O)Nc1ccc2ncnc(Nc3ccc(Cl)cc3)c2c1" 95.5

growth at 10 µM for "CCOC(=O)/C(C#N)=C\Nc1ccc2ncnc(Nc3ccc(Cl)cc3Cl)c2c1" ? 87.5

I'd like to know its growth at 10 µM. The compound in question is "NC(=O)Nc1ccc2ncnc(Nc3cccc(O)c3)c2c1" 101

Others:
Recorded growth at 10 µM of "CCOC(=O)/C(C#N)=C\Nc1ccc2ncnc(Nc3ccc(Cl)cc3)c2c1" , please. 87.5

Could you tell me which growth at 10 µM is on file for "C#Cc1cccc(Nc2ncnc3ccc(N/C=C(\C#N)C(=O)OCC)cc23)c1" ? 103

----------
// reported growth at 10 µM for each item listed
system: SK-MEL-28; assay: Cytotoxicity against human SK-MEL-28 cells assessed as cell growth at 10^-5 M after 48 hrs by SRB assay; type: functional; conditions: SK-MEL-28, 48 h, read-out: Activity

// worked examples, growth at 10 µM included
Fill blank: measured growth at 10 µM of the compound "CCOC(=O)/C(C#N)=C\Nc1ccc2ncnc(Nc3ccc(Cl)cc3Cl)c2c1" is ____. 109%

What value of growth at 10 µM has been recorded for this entry: "NC(=O)Nc1ccc2ncnc(Nc3cccc(O)c3)c2c1" 114%

Please look up its growth at 10 µM: "CCOC(=O)/C(C#N)=C\Nc1ccc2ncnc(Nc3ccccc3Cl)c2c1" 119%

Next:
Data request, read-out growth at 10 µM, for "CCOC(=O)/C(C#N)=C\Nc1ccc2ncnc(Nc3ccc(Cl)cc3)c2c1" 105%

Return reported growth at 10 µM; argument: "NC(=O)Nc1ccc2ncnc(Nc3ccc(Cl)cc3)c2c1" 106%

Which value of growth at 10 µM has been reported for "C#Cc1cccc(Nc2ncnc3ccc(N/C=C(\C#N)C(=O)OCC)cc23)c1" in the records? 103%

----------
Reported inhibition values are given for each entry in this list.
biological target: Epidermal growth factor receptor (Homo sapiens); conditions: at 10 µM;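 note: EGFR tyrosine kinase activity on a poly(Glu,Tyr) substrate, read out by Kinase-Glo Plus luminescence after a 40 min reaction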
Sequence (P00533 whole entry): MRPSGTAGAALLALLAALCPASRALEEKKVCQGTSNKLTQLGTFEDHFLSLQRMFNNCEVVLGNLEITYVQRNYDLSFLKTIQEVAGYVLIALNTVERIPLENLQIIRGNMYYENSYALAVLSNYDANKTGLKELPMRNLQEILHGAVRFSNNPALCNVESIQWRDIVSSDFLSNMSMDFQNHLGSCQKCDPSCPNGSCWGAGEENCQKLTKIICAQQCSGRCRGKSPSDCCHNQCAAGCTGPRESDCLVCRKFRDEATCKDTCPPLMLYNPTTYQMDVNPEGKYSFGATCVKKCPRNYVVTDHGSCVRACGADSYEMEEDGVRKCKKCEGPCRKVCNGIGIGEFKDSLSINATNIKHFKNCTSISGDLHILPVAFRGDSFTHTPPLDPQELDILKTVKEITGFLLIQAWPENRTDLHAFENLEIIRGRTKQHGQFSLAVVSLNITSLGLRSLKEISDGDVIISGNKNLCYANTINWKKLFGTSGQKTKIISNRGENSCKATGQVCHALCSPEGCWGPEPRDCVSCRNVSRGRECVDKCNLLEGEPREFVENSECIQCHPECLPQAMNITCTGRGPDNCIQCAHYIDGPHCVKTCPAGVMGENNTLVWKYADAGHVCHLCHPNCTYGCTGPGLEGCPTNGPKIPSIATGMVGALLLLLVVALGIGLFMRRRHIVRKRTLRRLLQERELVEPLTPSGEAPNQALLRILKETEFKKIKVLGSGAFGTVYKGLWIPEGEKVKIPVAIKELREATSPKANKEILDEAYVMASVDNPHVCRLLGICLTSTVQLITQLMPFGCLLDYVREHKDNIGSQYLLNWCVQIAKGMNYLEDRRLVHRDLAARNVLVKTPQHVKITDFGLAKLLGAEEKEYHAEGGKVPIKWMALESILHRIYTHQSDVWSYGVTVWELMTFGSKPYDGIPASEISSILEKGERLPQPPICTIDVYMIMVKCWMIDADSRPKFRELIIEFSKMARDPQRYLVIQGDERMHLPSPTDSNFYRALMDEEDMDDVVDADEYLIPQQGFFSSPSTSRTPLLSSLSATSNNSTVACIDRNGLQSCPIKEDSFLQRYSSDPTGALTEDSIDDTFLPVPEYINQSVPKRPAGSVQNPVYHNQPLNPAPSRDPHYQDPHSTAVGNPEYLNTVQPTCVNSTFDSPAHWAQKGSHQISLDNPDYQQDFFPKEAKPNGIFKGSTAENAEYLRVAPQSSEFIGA
Description: Inhibition of EGFR tyrosine kinase (unknown origin) using poly (Glu,Tyr) as substrate at 10 uM after 40 mins by Kinase-Glo Plus luminescence kinase assay
API: value field is a number in %; no unit string.

Here are 5 molecules together with their reported answers.
Recorded inhibition for "CCOC(=O)/C(C#N)=C\Nc1ccc2ncnc(Nc3ccccc3Cl)c2c1" , please? 94

Find the recorded inhibition belonging to "NC(=O)Nc1ccc2ncnc(Nc3ccc(Cl)cc3)c2c1" and report it. 100

Item under review: "CCOC(=O)/C(C#N)=C\Nc1ccc2ncnc(Nc3ccc(O)cc3)c2c1" . Reported inhibition? 100

Please give the measured inhibition for this molecule: "CCOC(=O)/C(C#N)=C\Nc1ccc2ncnc(Nc3ccc(Cl)cc3Cl)c2c1" 92

Give its inhibition value. Item: "CCOC(=O)/C(C#N)=C\Nc1ccc2ncnc(Nc3ccccc3CC)c2c1" 84

---
I'd like to know its inhibition. The molecule in question is "C#Cc1cccc(Nc2ncnc3ccc(N/C=C(\C#N)C(=O)OCC)cc23)c1" 95

Would you mind telling me what inhibition value was observed for "CCOC(=O)C(=CNc1ccc2ncnc(Nc3ccc(Cl)cc3)c2c1)C(=O)OCC" ? 82

Record request: inhibition value, item "CCOC(=O)C(=CNc1ccc2ncnc(Nc3cccc(Br)c3)c2c1)C(=O)OCC" 100

I am curious: what inhibition value has been reported for "CCOC(=O)C(=CNc1ccc2ncnc(Nc3ccc(Cl)cc3Cl)c2c1)C(=O)OCC" ? 90

I am curious: what inhibition value has been reported for "CCOC(=O)C(=CNc1ccc2ncnc(Nc3ccc(O)cc3)c2c1)C(=O)OCC" ? 100

Reference source: ChEMBL document CHEMBL2346534
